Taken from PubChem BioAssay (NCI).

Let's look at some molecules and their measured growth.
System: UO-31 renal
Assay: NCI-60 one-dose screen, 48 h (100 = growth as untreated, 0 = no growth, -100 = all killed)
Conditions: 10 µM unless noted
This is part of a sample that, as a whole, favours compounds with a hit. Of some 83,000 tested, about 20% had one in any assay.
reported.endpoint: growth (%)

INSERT INTO results (molecule, experimental_value) VALUES
  ('O=c1c2ccccc2cc2n1CCN=C2c1ccccc1', 78.6),
  ('O=C1CSC(c2cn(-c3ccccc3)nc2-c2ccc(Cl)cc2)N1c1ccccc1 (centres undefined)', 83.8),
  ('COc1cc2cc(Oc3ccc(NC(=O)Nc4ccc(F)c(C(F)(F)F)c4)cc3)c(C)nc2cc1OCCN(C)C', 86.6),
  ('CC[C@]12CC(C(=O)OC)=C3Nc4ccccc4[C@@]34CCN(C14)[C@@H]1c3cc4c(cc3O[C@@H]1[C@H]2O)NC1=C(C(=O)OC)C[C@@]2(CC)C3N(CC[C@@]143)C[C@H]1O[C@H]12 (some centres undefined)', 7.33),
  ('COc1ccc(C(=NNS(=O)(=O)c2ccc(C)cc2)c2ccccc2)cc1OC', 77.4),
  ('COc1ccc(C2CC(c3cccc(OCCCCOc4cccc(C5=NOC(c6ccc(OC)cc6)C5)c4)c3)=NO2)cc1 (centres undefined)', 79),
  ('Cc1ccc2c(n1)C(=O)C(Cl)=C(Nc1cccc(C(=O)OC(C)(C)C)c1)C2=O', 78.4),
  ('Cc1csc(/N=C(N)/N=C(\N)c2cccc(C#N)c2)n1', 76.3),
  ('Cn1ncc2ncc(-c3ccc4ncc(C#N)c(N5CCc6cc(F)c(Cl)cc65)c4c3)cc21', 3.14);

###

Let's look at some compounds and their measured growth.
Tested on: BT-549 breast
Experiment: NCI-60 one-dose screen, 48 h (100 = growth as untreated, 0 = no growth, -100 = all killed)
Conditions: 10 µM unless noted
About 83,000 compounds went through this panel and 20% of them were active in at least one assay; those are over-represented in the sample as a whole.
reported.endpoint: growth (%)

INSERT INTO assay_data (cpd_smiles, tested_on, endpoint_unit, experimental_value) VALUES
  ('Cc1c(C(=O)/C=C/c2ccc(Cl)cc2)nnn1-c1ccc2oc(=O)ccc2c1', 'BT-549 breast', '%', 109),
  ('O=C(CSc1nc2ccccc2c(=O)n1CCc1ccccc1)Nc1ccc(S(=O)(=O)Nc2ccc(Cl)nn2)cc1', 'BT-549 breast', '%', 98.9),
  ('CCOP(=O)(OCC)OC[C@]12CCC(C)(C)C[C@H]1C1=CC[C@@H]3[C@@]4(C)CC[C@H](OP(=O)(OCC)OCC)C(C)(C)[C@@H]4CC[C@@]3(C)[C@]1(C)CC2', 'BT-549 breast', '%', 54.1),
  ('C#C[C@]1(O)CC[C@H]2[C@@H]3CC=C4c5sc(NCc6ccccc6)nc5CC[C@]4(C)[C@H]3CC[C@@]21C', 'BT-549 breast', '%', 18.2);

###

Tested on: SNB-19 CNS
Test: NCI-60 one-dose screen, 48 h (100 = growth as untreated, 0 = no growth, -100 = all killed)
Conditions: 10 µM unless noted
Compounds without any hit were thinned out: in the full panel of roughly 83,000, 20% have a hit.
reported.endpoint: growth (%)

INSERT INTO results (cpd_smiles, reported_endpoint, experimental_value) VALUES
  ('CC1=C(C)C(=O)C(Nc2cccc(C)c2)=C(Br)C1=O', 'growth', 101),
  ('O=C(/C=C/c1ccc(Cl)c(Cl)c1)Nc1ncc(Cc2ccc(Cl)c(Cl)c2)s1', 'growth', 74),
  ('C#CCN(C)CCCOc1ccc(NC(=O)CCCCCCC(=O)NO)cc1Cl', 'growth', 30.3),
  ('C=C(C)[C@@H]1CC[C@]2(C(=O)O)CC[C@]3(C)[C@H](CC[C@@H]4[C@@]5(C)C/C(=C/c6ccccn6)C(=O)C(C)(C)[C@@H]5CC[C@]43C)[C@@H]12', 'growth', 50.3),
  ('COC(=O)c1cccc(NC2=C(Cl)C(=O)c3nc(C)ccc3C2=O)c1', 'growth', 92.2);
